- system.name: Voltage-gated inwardly rectifying potassium channel KCNH2 (Homo sapiens) (UniProt Q12809)
- Sequence (Q12809 whole entry, looked up): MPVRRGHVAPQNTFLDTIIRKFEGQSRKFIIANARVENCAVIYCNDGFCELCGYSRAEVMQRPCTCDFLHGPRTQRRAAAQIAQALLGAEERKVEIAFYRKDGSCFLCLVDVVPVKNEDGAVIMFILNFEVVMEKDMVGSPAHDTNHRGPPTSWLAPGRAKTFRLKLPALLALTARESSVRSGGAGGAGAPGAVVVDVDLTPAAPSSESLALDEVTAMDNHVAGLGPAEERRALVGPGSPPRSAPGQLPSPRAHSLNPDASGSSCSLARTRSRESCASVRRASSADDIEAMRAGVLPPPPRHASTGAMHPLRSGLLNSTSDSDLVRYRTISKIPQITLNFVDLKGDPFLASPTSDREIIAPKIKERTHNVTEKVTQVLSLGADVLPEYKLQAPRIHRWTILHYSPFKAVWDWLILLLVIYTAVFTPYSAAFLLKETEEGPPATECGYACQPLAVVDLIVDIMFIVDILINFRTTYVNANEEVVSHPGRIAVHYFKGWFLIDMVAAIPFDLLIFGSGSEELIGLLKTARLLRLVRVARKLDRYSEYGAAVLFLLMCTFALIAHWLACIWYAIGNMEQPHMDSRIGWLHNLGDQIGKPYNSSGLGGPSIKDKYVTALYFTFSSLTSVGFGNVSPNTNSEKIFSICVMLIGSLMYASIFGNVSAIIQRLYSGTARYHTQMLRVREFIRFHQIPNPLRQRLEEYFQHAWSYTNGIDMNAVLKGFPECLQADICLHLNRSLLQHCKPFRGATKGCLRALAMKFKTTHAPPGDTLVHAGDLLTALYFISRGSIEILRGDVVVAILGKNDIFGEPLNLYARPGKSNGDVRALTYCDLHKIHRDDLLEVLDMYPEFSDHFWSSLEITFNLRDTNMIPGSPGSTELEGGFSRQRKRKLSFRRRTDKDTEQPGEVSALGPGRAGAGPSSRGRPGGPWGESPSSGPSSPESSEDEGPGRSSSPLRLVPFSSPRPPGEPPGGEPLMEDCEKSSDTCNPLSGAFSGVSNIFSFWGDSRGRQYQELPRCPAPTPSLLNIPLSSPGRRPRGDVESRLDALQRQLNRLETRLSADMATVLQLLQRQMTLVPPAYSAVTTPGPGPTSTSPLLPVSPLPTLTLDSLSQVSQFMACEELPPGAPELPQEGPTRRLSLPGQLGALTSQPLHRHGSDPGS
- test.method.notes: KCNH2 potassium channel function modulators, cell-based (AID 376);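 also: 0% = buffer alone and 100% = reference blocker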
- assay.context: hERG-expressing cells, channel activity single-concentration screen; concentration not given here
The whole screen tested about 2,000 compounds, of which about 250 (12%) were called active. The entries come from a sample that favours actives as a whole.
As shown below, each of these compounds has a reported hERG blockade value.
Give the value in % but do not write % after it.

NC(=O)N=C(N)NC(=O)c1ccccc1 = -1.06

Turning now to a further record.
COc1ccc2nccc(SCC(=O)O)c2c1 has a reported hERG blockade of -9.78

====

- system.name: Voltage-gated inwardly rectifying potassium channel KCNH2 (Homo sapiens)
- test.method.notes: KCNH2 potassium channel function modulators, cell-based (AID 376);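 also: 0% = buffer alone and 100% = reference blocker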
- assay.context: hERG-expressing cells, channel activity single-concentration screen; concentration not given here
In all, about 2,000 compounds went through this assay and about 250 (12%) were called active. This is one part of a sample in which actives are shown more often than they occur.
As shown below, each of these molecules has a reported hERG blockade value.
Give the value in % but do not write % after it.

NNC(=O)CCc1ccc2ccc3ccccc3c2c1 = -44.7

Turning now to a further record.
O=S(=O)(O)c1ccc(N=Nc2ccc3c(S(=O)(=O)O)cccc3c2O)c2ccccc12 has a reported hERG blockade of 14.9

====

- system.name: Voltage-gated inwardly rectifying potassium channel KCNH2 (Homo sapiens) (UniProt Q12809)
- test.method.notes: KCNH2 potassium channel function modulators, cell-based (AID 376);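 also: 0% = buffer alone and 100% = reference blocker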
- assay.context: hERG-expressing cells, channel activity single-concentration screen; concentration not given here
The campaign covered roughly 2,000 compounds. About 250 (12%) were called active. The sample as a whole holds a higher share of actives than the screen did.
As shown below, each of these compounds has a reported hERG blockade value.
Give the value in % but do not write % after it.

O=C(O)c1ccc(C(=O)O)c(C(=O)Nc2ccc3c(c2)Cc2ccccc2-3)c1 = -3.35
CN(C)CCNS(=O)(=O)N(C)C = 6.32
CC12CCC(O)CC1=CCC1C2CCC2(C)C1CCC2N(CCO)CCO (stereo not drawn) = -0.272
CC1CCCC2(CC[N+](C)(CCC[N+](C)(C)C)CC2)C1 (stereo not drawn) = 17.8
N=C(N)SCCSC(=N)N = 9.63
O=C(O)c1ccc(C(=O)c2ccccc2)c(C(=O)O)c1 = 1.04
CC1OC(CC(=O)O)Cc2c1c(O)c1c(O)cc(-c3cc(=O)c4c(=O)c5c(c(=O)c=4c3=O)CC(CC(=O)O)OC5C)c(O)c1c2O (stereo not drawn) = 14.9
Cc1ccc(S(=O)(=O)NC(=O)OC23COCN2COC3)cc1 = -18.8
O=C1c2ccccc2C(=O)c2c1ccc(N1C(=O)c3ccccc3C1=O)c2-c1c(N2C(=O)c3ccccc3C2=O)ccc2c1C(=O)c1ccccc1C2=O = 15.5
c1ccc(SCCc2ccncc2)cc1 = 5.61

CC1(C)SC2C(NC(=O)C3(N)CCCCC3)C(=O)N2C1C(=O)O (stereo not drawn) has a reported hERG blockade of -8.47

O=C(CC1(O)CCCCC1)OC1CCCC1 has a reported hERG blockade of -2.11

CSC12C(=O)CC3(C)C(CCC3(O)C(=O)CO)C1CCC1=CC(=O)CCC12C (stereo not drawn) has a reported hERG blockade of 3.28

Cc1ncc(CN=Cc2ccc(Cl)cc2)c(N)n1 has a reported hERG blockade of 6.55

O=C(O)C(=Cc1ccccc1)Cc1ccccc1 has a reported hERG blockade of -1.14

CN(C)CCC(=O)C1(O)CCC2C3CC=C4CC(O)CCC4(C)C3CCC21C (stereo not drawn) has a reported hERG blockade of 2.46

Cc1nc2sc3c(c2c(=O)[nH]1)CCCC3 has a reported hERG blockade of -7.98

Cn1c(=O)c2[nH]c(CCNC(=O)c3ccccc3)nc2n(C)c1=O has a reported hERG blockade of -14

O=C(O)c1ccc(NC(c2ccccc2)c2ccc3cccnc3c2O)cc1 (stereo not drawn) has a reported hERG blockade of -7.8

[N-]=[N+]=Nc1ccccc1-c1ccccc1[N+](=O)[O-] has a reported hERG blockade of -19.7

CC(=N[O-])C(C)=N[O-].CC(=N[O-])C(C)=N[O-].[CH2-]CCN1CCOCC1.[Co].c1ccncc1 has a reported hERG blockade of 17.9

Cc1nc(CN2CCCCC2)c(O)c(=O)[nH]1 has a reported hERG blockade of -28.2

NC(CNO)C(=O)O (stereo not drawn) has a reported hERG blockade of -10.6
